MEASURED_ON: UniProtKB P07900
ASSAY_OVERVIEW: Inhibition of HSP90alpha (unknown origin)
Activity calls are given as the source filed them. The calls are words filed in the database; no cut-off is given here.
Select the matching outcome among active, inactive

QUERY: Record request — test call for O=C1c2ccccc2C(=O)c2c1ccc1nonc21
RESULT: active

QUERY: Record request — test call for Cn1c2c([n+](C)c1CCl)C(=O)c1ccccc1C2=O
RESULT: active

QUERY: Record request — test call for CCOC(=O)CC1(C)Oc2ccccc2O1
RESULT: inactive

QUERY: Record request — test call for CC(=O)Oc1ccc([N+](=O)[O-])c2ccccc12
RESULT: inactive

QUERY: Record request — test call for CC(=O)Oc1ccc2c(=O)c(Cc3ccccc3)c(C)oc2c1OC(C)=O
RESULT: active

###

pIC50: −log10 of the molar value.
I'd be grateful if you could share measured pIC50 for these entries.

Item CCn1c(=O)n(-c2ccccc2OC)c2ccccc21 was tested on Heat shock protein HSP 90-alpha (Homo sapiens, UniProt P07900); the reported pIC50 is < 6.00

Item COC(=O)c1cc(C(=O)c2ccc(OC)cc2)cc(C(=O)OC)c1OC was tested on Heat shock protein HSP 90-alpha (Homo sapiens, UniProt P07900); the reported pIC50 is < 6.00
